Collected literature values of Ki measured for Adenosine receptor A2a (Homo sapiens).
Numeric only. Scale: µM

Form: compound = Cc1cc(-c2c(-c3cccc(C#N)c3)nn3ccc(N[C@@H]4CCOC4)nc23)cc(Cl)n1 ; Ki = 0.001

Form: compound = CCn1nccc1-c1c(-c2cccc(C#N)c2)nn2ccc(NCc3nnc[nH]3)nc12 ; Ki = 0.0919

Form: compound = Cc1cc(-c2c(-c3cccc(C#N)c3)nn3ccc(N[C@@H]4CC[C@@H]4O)nc23)cc(Cl)n1 ; Ki = 0.0062

Form: compound = Cn1cc(-c2c(-c3ccco3)nn3ccc(NCc4ccccc4)nc23)cn1 ; Ki = 0.0277

Form: compound = Cc1cc(-c2sc(NC(=O)N3CCC4(CC3)CN(C)C(=O)N4)nc2-c2cccc(C#N)c2)cc(C)n1 ; Ki = 0.00068

Form: compound = Cc1cc(-c2c(-c3cccc(C#N)c3)nn3ccc(C(=O)NCCC(C)(C)N)nc23)cc(Cl)n1 ; Ki = 0.0004

Form: compound = N#Cc1c(-c2ccco2)nn2ccc(NCCN3CCN(Cc4ccccc4)CC3)nc12 ; Ki = 0.31

Form: compound = CCc1cnn([C@H]2C[C@@H](n3cnc4c(NCCc5ccccc5)nc(NCCc5cn(CC)cn5)nc43)[C@H](O)[C@@H]2O)c1 ; Ki = 0.072

Form: compound = NCCC(=O)N(CCc1c[nH]c2ccccc12)C(C(=O)Nc1ccccc1)c1ccccc1Br (stereo not shown) ; Ki = 0.06

Form: compound = Cc1cc(-c2sc(NC(=O)N3CC4(COC4)C3)nc2-c2cccc(C#N)c2)cc(CF)n1 ; Ki = 0.00016

Form: compound = O=C(O)/C=C/c1c(-c2ccco2)nn2ccc(NCc3ccccc3)nc12 ; Ki = 0.102

Form: compound = NCCC(=O)N(CCc1c[nH]c2ccccc12)C(C(=O)NC1CCCCC1)c1ccccc1Br (stereo not shown) ; Ki = 1

Form: compound = NC(=O)c1c(-c2ccco2)nn2ccc(N3CCN(CCF)CC3)nc12 ; Ki = 0.0389

Form: compound = Cc1cc(-c2sc(NC(=O)N3CCC(C)(C#N)CC3)nc2-c2cccc(C#N)c2C)cc(C)n1 ; Ki = 0.00039
